- target-or-test-system: cloned human CCR8 receptor stably expressed in L1.2 cells (Homo sapiens)
- Construct: expressed in transfected cells
- test-method-notes: whole cell binding screen: inhibition of biotinylated human I309 binding to CCR8 (FMAT 8100 HTS)
- assay-conditions: Ki of compounds to inhibit I-309 binding to CCR8, L1.2/hCCR8 cells, biotinylated human I-309, 10 point concentration response starting at 10 μM
- From the text: This whole cell binding screen evaluates the ability of compounds to inhibit biotinlyated human I309 binding to the cloned human CCR8 receptor stably expressed in L1.2 cells. Human CCR8 gene was amplified by PCR using PFU polymerase under standard conditions from human genomic DNA purchased from Stratagene. The PCR primers used were: The 5′ and 3′ primers contained flanking enzyme sites (Bam Hi and Not 1,respectively), which were used to subclone the gene into pcDNA3.1. […]
pKi: −log10 of the molar value.
Documented pKi across a set of compounds

Sample answers from the record:
query_smiles=CCCC(=O)N1CCC(NS(=O)(=O)c2ccc(NC(=O)C3CCCC3)c3ccccc23)CC1 experimental_value="> 6.30"
query_smiles=O=C(Nc1ccc(S(=O)(=O)NCc2ccccc2)c2ccccc12)c1ccccc1 experimental_value="> 6.30"
query_smiles=Cc1ccccc1C(=O)Nc1ccc(S(=O)(=O)NC2CCN(C(=O)N(C)C)CC2)c2ccccc12 experimental_value="> 6.30"
query_smiles=CCOC(=O)N1CCC(NS(=O)(=O)c2cccc3c(NC(=O)c4ccccc4)cccc23)CC1 experimental_value="> 6.30"
query_smiles=Cc1ccccc1C(=O)Nc1ccc(S(=O)(=O)NC2CCN(C(=O)NC(C)C)CC2)c2ccccc12 experimental_value="> 6.30"
query_smiles=CCNC(=O)N1CCC(NS(=O)(=O)c2ccc(C(=O)Nc3ccccc3C)c3ccccc23)CC1 experimental_value="> 6.30"
query_smiles=Cc1ccccc1C(=O)Nc1ccc(S(=O)(=O)NC2CCN(C(=O)N3CCOCC3)CC2)c2ccccc12 experimental_value="> 6.00"
query_smiles=CCOC(=O)N1CCC(NS(=O)(=O)c2ccc(NC(=O)N3CCCCC3)c3ccccc23)CC1 experimental_value="> 6.30"
query_smiles=O=C(Nc1ccc(S(=O)(=O)NC2CCCCC2)c2ccccc12)c1ccccc1 experimental_value="> 6.00"
query_smiles=CN[C@@H](C)C(=O)N1CCC(NS(=O)(=O)c2ccc(NC(=O)c3ccccc3C)c3ccccc23)CC1 experimental_value="> 6.30"

// next entry
Q: Provide pKi, tested on cloned human CCR8 receptor stably expressed in L1.2 cells (Homo sapiens), for "Cc1ccccc1C(=O)Nc1ccc(S(=O)(=O)NC2CCN(C(=N)N3CCCC3)CC2)c2ccccc12" .
Result: > 6.30

* * *

The entries below come with measured Ki values attached.
- target-or-test-system: cloned human CCR8 receptor stably expressed in L1.2 cells (Homo sapiens, UniProt P51685)
- Construct: expressed in transfected cells
- Sequence (P51685 whole entry): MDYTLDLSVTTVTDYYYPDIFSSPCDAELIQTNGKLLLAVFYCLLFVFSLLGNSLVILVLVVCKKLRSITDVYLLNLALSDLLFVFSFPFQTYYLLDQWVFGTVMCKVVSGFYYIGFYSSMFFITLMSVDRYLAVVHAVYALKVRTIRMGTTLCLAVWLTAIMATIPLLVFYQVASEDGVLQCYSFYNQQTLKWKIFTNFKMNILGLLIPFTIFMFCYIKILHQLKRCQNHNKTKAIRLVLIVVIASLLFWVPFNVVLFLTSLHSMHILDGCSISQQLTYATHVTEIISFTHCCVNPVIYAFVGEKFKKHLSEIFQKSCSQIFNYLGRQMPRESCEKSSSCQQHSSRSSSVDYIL
- test-method-notes: whole cell binding screen: inhibition of biotinylated human I309 binding to CCR8 (FMAT 8100 HTS)
- assay-conditions: L1.2/hCCR8 cells, biotinylated human I-309, 10 point concentration response starting at 10 μM; read-out: Ki of compounds to inhibit I-309 binding to CCR8

// below: answered compounds
query_smiles=Cc1ccccc1C(=O)Nc1ccc(S(=O)(=O)NC2CCN(C(=O)OC(C)C)CC2)c2c1CCCC2 experimental_endpoint=Ki experimental_value="< 0.5 µM"
query_smiles=CCOC(=O)N1CCC(NS(=O)(=O)c2cc3c(c(NC(=O)c4ccccc4C)c2)CCCC3)CC1 experimental_endpoint=Ki experimental_value="< 1 µM"
query_smiles=Cc1ccccc1NC(=O)c1ccc(S(=O)(=O)NC2CCNCC2)c2ccccc12 experimental_endpoint=Ki experimental_value="< 30 µM"

Q: Give recorded Ki. "CCCC(=O)N1CCC(NS(=O)(=O)c2cc3c(c(NC(=O)c4ccccc4Cl)c2)CCCC3)CC1"
Result: < 30 µM

* * *

- target-or-test-system: cloned human CCR8 receptor stably expressed in L1.2 cells (Homo sapiens, UniProt P51685)
- Construct: expressed in transfected cells
- test-method-notes: whole cell binding screen: inhibition of biotinylated human I309 binding to CCR8 (FMAT 8100 HTS)
- assay-conditions: L1.2/hCCR8 cells, biotinylated human I-309, 10 point concentration response starting at 10 μM; read-out: Ki of compounds to inhibit I-309 binding to CCR8
- Text: This whole cell binding screen evaluates the ability of compounds to inhibit biotinlyated human I309 binding to the cloned human CCR8 receptor stably expressed in L1.2 cells. Human CCR8 gene was amplified by PCR using PFU polymerase under standard conditions from human genomic DNA purchased from Stratagene. The PCR primers used were: The 5′ and 3′ primers contained flanking enzyme sites (Bam Hi and Not 1,respectively), which were used to subclone the gene into pcDNA3.1. […]
experimental-endpoint: Ki

Some molecules with known Ki results, for comparison:
molecule="CCOC(=O)N1CC[C@H](NS(=O)(=O)c2ccc(NC(=O)c3ccccc3C)c3ccccc23)[C@H](C)C1 (racemic)" experimental_value="< 500 nM"
molecule=Cc1ccccc1C(=O)Nc1ccc(S(=O)(=O)NC2CCOCC2)c2c1CCCC2 experimental_value="< 500 nM"
molecule="Cc1ccccc1C(=O)Nc1ccc(S(=O)(=O)NC2CCN(C(=O)OC(C)(C)C)C2)c2c1CCC2 (racemic)" experimental_value="< 500 nM"
molecule=Cc1ccccc1C(=O)Nc1ccc(S(=O)(=O)NC2CCN(C(=O)CN3CCCC3)CC2)c2ccccc12 experimental_value="< 500 nM"

Q: Note down Ki recorded for "O=C(Nc1ccc(S(=O)(=O)NC2CCNCC2)c2ccccc12)c1c(F)cccc1C(F)(F)F"
Result: < 30000 nM

Q: Return the recorded Ki value; entry: "CCCC(=O)N1CCC(NS(=O)(=O)c2ccc(C(=O)NC3CCCCC3)c3ccccc23)CC1"
Result: < 500 nM

Q: // Input: "CC(C)NC(=O)N1CCC(NS(=O)(=O)c2ccc(NC(=O)c3ccccc3)c3ccccc23)CC1" . Output its Ki only.
Result: < 500 nM

Q: Dear colleague, please send me the reported Ki for "Cc1ccccc1C(=O)Nc1ccc(S(=O)(=O)NC2CCCC2)c2c1CCCC2" when you can.
Result: < 1000 nM

* * *

- target-or-test-system: cloned human CCR8 receptor stably expressed in L1.2 cells (Homo sapiens, UniProt P51685)
- Construct: expressed in transfected cells
- test-method-notes: whole cell binding screen: inhibition of biotinylated human I309 binding to CCR8 (FMAT 8100 HTS)
- assay-conditions: L1.2/hCCR8 cells, biotinylated human I-309, 10 point concentration response starting at 10 μM; read-out: Ki of compounds to inhibit I-309 binding to CCR8
experimental-endpoint: Ki

compound="CN1CCC(C(=O)Nc2ccc(S(=O)(=O)NC3CCNCC3)c3ccccc23)CC1 [Compound D-17]" experimental_endpoint=Ki experimental_value="< 30000 nM"
compound="Cc1ccccc1C(=O)Nc1ccc(S(=O)(=O)N[C@@H]2CCN(C(=O)CN3CCCC3)C[C@@H]2C)c2ccccc12 (racemic) [Compound C-142]" experimental_endpoint=Ki experimental_value="< 500 nM"
compound="O=C(NC1CCCCC1)c1ccc(S(=O)(=O)NC2CCNCC2)c2ccccc12 [Compound F-2]" experimental_endpoint=Ki experimental_value="< 30000 nM"
compound="Cc1ccccc1C(=O)Nc1ccc(S(=O)(=O)NC2CCN(C(=O)N(C)C)C2)c2c1CCC2 (racemic) [Compound H-73]" experimental_endpoint=Ki experimental_value="< 1000 nM"
compound="Cc1ccccc1C(=O)Nc1ccc(S(=O)(=O)N[C@@H]2[C@H](C)CN(C(=O)N3CCCCC3)C[C@@H]2C)c2ccccc12 [Compound C-72]" experimental_endpoint=Ki experimental_value="< 1000 nM"
compound="Cc1ccccc1C(=O)Nc1ccc(S(=O)(=O)N[C@H]2CCNC[C@H]2C)c2ccccc12 [Compound J-50]" experimental_endpoint=Ki experimental_value="< 500 nM"
compound="CCOC(=O)N1CCC(NS(=O)(=O)c2ccc(N3C(=O)c4ccccc4C3=O)c3ccccc23)CC1 [Compound A-18]" experimental_endpoint=Ki experimental_value="< 500 nM"
compound="CCOC(=O)N1CCC(NS(=O)(=O)c2ccc(CNCc3ccccc3C)c3ccccc23)CC1 [Compound G-11]" experimental_endpoint=Ki experimental_value="< 500 nM"
compound="COc1ccc(NS(=O)(=O)c2ccc(NC(=O)Cc3ccccc3)c3ccccc23)cc1 [Compound B-7]" experimental_endpoint=Ki experimental_value="< 500 nM"
compound="CCCC(=O)N1CC[C@H](NS(=O)(=O)c2ccc(NC(=O)c3ccccc3C)c3ccccc23)[C@H](CO)C1 (racemic) [Compound C-80]" experimental_endpoint=Ki experimental_value="< 500 nM"

Q: Recall and state the measured Ki for CCOC(=O)N1CC[C@@H](NS(=O)(=O)c2ccc(NC(=O)c3ccccc3C)c3ccccc23)[C@@H](C)C1 (single isomer, unassigned) [Compound C-138] .
Result: < 1000 nM

Q: Input O=C(Nc1ccc(S(=O)(=O)NC2CCNCC2)c2ccccc12)C1CCCC1 [Compound D-11] , output reported Ki.
Result: < 30000 nM

Q: Indicate its recorded Ki; the compound in question is CCOC(=O)N1CC[C@H](NS(=O)(=O)c2ccc(NC(=O)c3ncccc3C)c3ccccc23)[C@H](C)C1 (racemic) [Compound D-7]
Result: < 500 nM

Q: Give me measured Ki, please, for this compound: CCNC(=O)N1CCC(NS(=O)(=O)c2ccc(NC(=O)c3ccccc3C)c3ccccc23)C(C)(C)C1 (racemic) [Compound C-21]
Result: < 500 nM
